# credit: the supplement of paper PMC5579334

The following molecules are listed with their measured relative IC50 values.
Test system: HS-PSS
protocolDetails: relative IC50 (inflection point of fitted dose-response curve, CellTiter-Glo viability, 72 h; top asymptote may be below 50% inhibition); higher = less potent
Report as a plain number; the unit nM is understood.

• COc1cc(N2CCN(C)CC2)ccc1Nc1nccc(-c2cn(C)c3cnccc23)n1 [AZ191] = 2610
• CC(C)C[C@H](NC(=O)[C@H](Cc1ccccc1)NC(=O)c1cnccn1)B(O)O [Bortezomib] = 51.1
• O=C(/C=C/c1cccc(S(=O)(=O)Nc2ccccc2)c1)NO [Belinostat] = 924
• C[C@@H](Oc1ccc2[nH]nc(/C=C/c3cnn(CCO)c3)c2c1)c1c(Cl)cncc1Cl = 187
• Nc1ccn([C@@H]2O[C@H](CO)[C@@H](O)C2(F)F)c(=O)n1 [Gemcitabine] = 19.9

Attention now turns to another entry.
Report relative IC50 for CN(C)c1cc2c(cc1Sc1nc3c(N)nccc3n1CCNCC(C)(C)C)OCO2 [CUDC-305] tested on HS-PSS.
510

* * *

Tested on: HS-PSS
protocolDetails: drug sensitivity score (DSS, CellTox-Green cytotoxicity, 72 h) (DSS (dimensionless)); higher = more cytotoxic; extreme values may be limits of the assay
measurementLabel: drug sensitivity score

Solved entries:
• CC[C@H](NC(=O)[C@H](C)NC)C(=O)N1C[C@@H](O)C[C@H]1Cc1c(-c2[nH]c3cc(F)ccc3c2C[C@@H]2C[C@H](O)CN2C(=O)[C@H](CC)NC(=O)[C@H](C)NC)[nH]c2cc(F)ccc12 [Birinapant] (max concentration tested 1000 nM) = 0
• CN(C)C(=O)c1cc2cnc(Nc3ccc(N4CCNCC4)cn3)nc2n1C1CCCC1 [Ribociclib] (max concentration tested 10000 nM) = 0
• CCS(=O)(=O)N1CC(CC#N)(n2cc(-c3ncnc4[nH]ccc34)cn2)C1 [Baricitinib] (max concentration tested 2500 nM) = 0
• CC[C@@H]1C(=O)N(C)c2cnc(Nc3ccc(C(=O)N[C@H]4CC[C@H](N5CCN(CC6CC6)CC5)CC4)cc3OC)nc2N1C(C)C [Volasertib] (max concentration tested 1000 nM) = 0

Okay, now this molecule:
Quick check: drug sensitivity score of Cc1ccc(C(=O)Nc2ccc(Oc3cc4cnn(C)c4cc3-c3cn[nH]c3)c(F)c2)c(=O)n1-c1ccc(F)cc1 [Merestinib] (max concentration tested 1000 nM) ?
0

* * *

Test system: HS-Sch-2
protocolDetails: drug sensitivity score (DSS, CellTiter-Glo viability, 72 h) (DSS (dimensionless)); higher = more sensitive; extreme values may be limits of the assay
Please use Fulfilled whenever drug sensitivity score is not below 6, and Not fulfilled whenever it is.

* COc1cc(N2CCN(C)CC2)ccc1Nc1nccc(-c2cn(C)c3cnccc23)n1 [AZ191] (max concentration tested 10000 nM) | Not fulfilled

Hi, just wondering whether CC(C)NC[C@@H](C(=O)N1CCN(c2ncnc3c2[C@H](C)C[C@H]3O)CC1)c1ccc(Cl)cc1 [Ipatasertib] (max concentration tested 10000 nM) shows drug sensitivity score of 6 or higher.
Not fulfilled

// next record Cc1nc(=O)c2cc(CN(C)c3ccc(C(=O)N[C@@H](CCC(=O)O)C(=O)O)s3)ccc2[nH]1 [Raltitrexed] (max concentration tested 1000 nM)
Fulfilled

# iterate: Cn1c(=O)c(F)c(Nc2ccc(I)cc2F)c2c(=O)n(C[C@@H](O)CO)cnc21 [TAK-733] (max concentration tested 1000 nM)
Not fulfilled

For C=CCNC1=C2C[C@@H](C)C[C@H](OC)[C@H](O)[C@@H](C)/C=C(\C)[C@H](OC(N)=O)[C@@H](OC)/C=C\C=C(/C)C(=O)NC(=CC1=O)C2=O [Tanespimycin] (max concentration tested 10000 nM) then?
Fulfilled

Also CNC(=O)CN1CCC(Oc2cc3c(Nc4cccc(Cl)c4F)ncnc3cc2OC)CC1 [Sapitinib] (max concentration tested 1000 nM) , if possible.
Not fulfilled

Another compound: Clc1ccc(C(c2ccccc2Cl)C(Cl)Cl)cc1 (stereo unspecified) [Mitotane] (max concentration tested 10000 nM)
Not fulfilled

How about CO[C@H]1C(=O)[C@]2(C)[C@@H](OC)C[C@H]3OC[C@@]3(OC(C)=O)[C@H]2[C@H](OC(=O)c2ccccc2)[C@]2(O)C[C@H](OC(=O)[C@H](O)[C@@H](NC(=O)OC(C)(C)C)c3ccccc3)C(C)=C1C2(C)C [Cabazitaxel] (max concentration tested 1000 nM) ?
Fulfilled

* * *

Test system: HS-PSS
protocolDetails: % inhibition of CellTiter-Glo viability at highest tested concentration (72 h), relative to DMSO and benzethonium chloride controls; higher = more inhibition
# cutoff 40% applies to % inhibition; >= gives yes, < gives no

Example cases with answers are listed next.
- O=C(/C=C\n1cnc(-c2cc(C(F)(F)F)cc(C(F)(F)F)c2)n1)NNc1ccccn1 [Verdinexor] (max concentration tested 1000 nM): yes
- CO[C@H]1C[C@@H]2CC[C@@H](C)[C@@](O)(O2)C(=O)C(=O)N2CCCC[C@H]2C(=O)O[C@H]([C@H](C)C[C@@H]2CC[C@@H](OC(=O)C(C)(CO)CO)[C@H](OC)C2)CC(=O)[C@H](C)/C=C(\C)[C@@H](O)[C@@H](OC)C(=O)[C@H](C)C[C@H](C)/C=C/C=C/C=C/1C [Temsirolimus] (max concentration tested 100 nM): no

State whether the measured % inhibition reaches 40%, counting equality as reaching it, for Nc1nc(F)nc2c1ncn2[C@@H]1O[C@H](CO)[C@@H](O)[C@@H]1O [Fludarabine] (max concentration tested 10000 nM)
no

Try O=C(O)c1ccc(Nc2ncc3c(n2)-c2ccc(Cl)cc2C(c2c(F)cccc2F)=NC3)cc1 [MLN-8054] (max concentration tested 10000 nM) next.
no

Also check CN(C)c1cc2c(cc1Sc1nc3c(N)nccc3n1CCNCC(C)(C)C)OCO2 [CUDC-305] (max concentration tested 10000 nM)
yes

* * *

System: ST8814
protocolDetails: % inhibition of CellTiter-Glo viability at highest tested concentration (72 h), relative to DMSO and benzethonium chloride controls; higher = more inhibition
measurementLabel: % inhibition (%)
Provide only the numeric value, understood in %.

Sample records with % inhibition:
* Nc1nc(OCc2cc(Br)cs2)c2[nH]cnc2n1 [Lomeguatrib] (max concentration tested 10000 nM) | -0.939
* CC(O)(CS(=O)(=O)c1ccc(F)cc1)C(=O)Nc1ccc(C#N)c(C(F)(F)F)c1 (stereo unspecified) [Bicalutamide] (max concentration tested 10000 nM) | 7.2
* Cc1cnc(Nc2ccc(F)cc2Cl)nc1-c1c[nH]c(C(=O)N[C@H](CO)c2cccc(Cl)c2)c1 [VX-11E] (max concentration tested 2500 nM) | 67.8
* Cn1nnc2c(C(N)=O)ncn2c1=O [Temozolomide] (max concentration tested 10000 nM) | 11.9

Could you share which % inhibition value was measured for CC(C)C[C@H](NC(=O)[C@H](CCc1ccccc1)NC(=O)CN1CCOCC1)C(=O)N[C@@H](Cc1ccccc1)C(=O)N[C@@H](CC(C)C)C(=O)[C@@]1(C)CO1 [Carfilzomib] (max concentration tested 1000 nM) ?
102

Now the molecule CCCC(CCC)C(=O)O [Valproic acid aq] (max concentration tested 1000000 nM)
44.4

* * *

Tested on: HSC2 (primary human Schwann cells)
protocolDetails: drug sensitivity score (DSS, CellTox-Green cytotoxicity, 72 h) (DSS (dimensionless)); higher = more cytotoxic; extreme values may be limits of the assay
measurementLabel: drug sensitivity score
Answer as a number with no unit attached.

Solved entries (count: 2):
- O=C1c2c(O)ccc(O)c2C(=O)c2c(NCCNCCO)ccc(NCCNCCO)c21 [Mitoxantrone] (max concentration tested 1000 nM): 0
- CN(C)C(=N)NC(=N)N [Metformin aq] (max concentration tested 100000 nM): 0

Please look up its drug sensitivity score: Cc1cnc(Nc2ccc(F)cc2Cl)nc1-c1c[nH]c(C(=O)N[C@H](CO)c2cccc(Cl)c2)c1 [VX-11E] (max concentration tested 2500 nM)
4.5

* * *

Tested on: HS-PSS
protocolDetails: relative IC50 (inflection point of fitted dose-response curve, CellTiter-Glo viability, 72 h; top asymptote may be below 50% inhibition); higher = less potent
measurementLabel: relative IC50 (µM)
Give a bare numeral; the unit µM is implied.

Before answering, review these 5 worked examples.
• CCCc1cc(C)[nH]c(=O)c1CNC(=O)c1cc(-c2ccnc(N3CCN(C)CC3)c2)cc2c1cnn2C(C)C = 2.97
• Cc1ccc(Nc2nccc(N(C)c3ccc4c(C)n(C)nc4c3)n2)cc1S(N)(=O)=O = 0.605
• CCN(CC)CCCC(C)Nc1c2ccc(Cl)cc2nc2ccc(OC)cc12 (stereo not given) = 1.44
• O=C(O)CNC(=O)c1c(O)c2ccccc2n(Cc2ccccc2)c1=O = 10.3
• C[C@H]1Oc2cc(cnc2N)-c2c(nn(C)c2C#N)CN(C)C(=O)c2ccc(F)cc21 = 0.0107

Can you share its relative IC50? I mean this molecule: `COc1cccc2c1C(=O)c1c(O)c3c(c(O)c1C2=O)C[C@@](O)(/C(CO)=N/NC(=O)CCCCCN1C(=O)C=CC1=O)C[C@@H]3O[C@H]1C[C@H](N)[C@H](O)[C@H](C)O1`
0.158

What do you get for `Nc1ccccc1NC(=O)c1ccc(CNC(=O)OCc2cccnc2)cc1` ?
3.73
